Test system: cultured cells of Taxus media
Assay: Taxus media cell culture with derivatives of jasmonic acids
Assay type: cell-based
Details: concentration of derivative of jasmonic acids 100 μM
reported_metric: yield of taxane-type diterpenes, baccatin III (mg/L)

molecule: CC/C=C\CC1C(=NC#N)CCC1CC(=O)OC (stereo not shown)
endpoint_result: 14.5
--
molecule: CC/C=C\CC1C(=NO)CCC1CC(=O)OC (stereo not shown)
endpoint_result: 20.1
--
molecule: CC/C=C\CC1C(=O)CCC1CC(=O)OC (stereo not shown) [Reference Example 1, methyl jasmonate, reference compound]
endpoint_result: 12.1
--
molecule: CC/C=C\CC1C(=NS(N)(=O)=O)CCC1CC(=O)OC (stereo not shown)
endpoint_result: 19.0
--
molecule: CC/C=C\CC1C(=NN)CCC1CC(=O)OC (stereo not shown)
endpoint_result: 16.5
--
molecule: CC/C=C\CC1/C(=N\NC=O)CCC1CC(=O)OC (stereo not shown)
endpoint_result: 18.5
--
molecule: CC/C=C\CC1/C(=N\NC(N)=O)CCC1CC(=O)OC (stereo not shown)
endpoint_result: 17.2
--
molecule: CC/C=C\CC1C(=NNS(C)(=O)=O)CCC1CC(=O)OC (stereo not shown)
endpoint_result: 15.3
--
molecule: CC/C=C\CC1C(CC(=O)OC)CCC1NO (stereo not shown)
endpoint_result: 14.2
--
molecule: CC/C=C\CC1/C(=N\OC)CCC1CC(=O)OC (stereo not shown)
endpoint_result: 18.0
